Source listed as patent US10889591B2.

- protocol.description: Rat pharmacokinetic evaluation
- Format: in vivo, SD male rats
- particulars: SD rat, intravenous bolus 1 mg/kg
observation.type: Vz_obs iv (apparent distribution volume) (L/kg)
Record the value in L/kg, omitting the unit from your answer.

compound	recorded.value
CCc1cc2c(N3CCC(C)(OC)CC3)c(C#N)c(=O)[nH]c2cn1	2.13
Cc1cc2c(N3CCC4(CCC4)CC3)c(C#N)c(=O)[nH]c2cn1	1.75
N#Cc1c(N2CCC3(CC2)CC3)c2ccncc2[nH]c1=O	1.27
CC(C)(O)c1cc2c(N3CCC4(CC3)CC4)c(C#N)c(=O)[nH]c2cn1	1.16
N#Cc1c(N2CCC3(CC2)CC3)c2cc(C(O)C3CC3)ncc2[nH]c1=O (stereo not shown)	1.38

Enquiry: Identify the reported Vz_obs iv (apparent distribution volume) for the following entry. CNC(=O)c1cc2c(N3CCC4(CC3)CC4)c(C#N)c(=O)[nH]c2cn1
Return: 0.57

Enquiry: Identify the reported Vz_obs iv (apparent distribution volume) for the following entry. CCc1cc2c(N3CCC4(CC3)CC4)c(C#N)c(=O)[nH]c2cn1
Return: 1.25

---

- particulars: human, microsomes
observation.type: CLint

molecule	CLint
CCc1cc2c(N3CCC4(CC3)CC4)c(C#N)c(=O)[nH]c2cn1 [Compound 76]	0.0030 mL · min^−1 · mg^−1 proteins

Enquiry: Identify the reported CLint for the following entry. N#Cc1c(N2CCC3(CC2)CC3)c2ccncc2[nH]c1=O [Compound 25]
Return: 0.0044 mL · min^−1 · mg^−1 proteins

Enquiry: Identify the reported CLint for the following entry. N#Cc1c(N2CCC3(CC2)CC3)c2ncccc2[nH]c1=O [Compound 80]
Return: 0.0292 mL · min^−1 · mg^−1 proteins

Enquiry: Identify the reported CLint for the following entry. N#Cc1c(N2CCC3(CCC3)CC2)c2cc(N3CC(O)C3)ncc2[nH]c1=O [Compound 51]
Return: 0.0110 mL · min^−1 · mg^−1 proteins

Enquiry: Identify the reported CLint for the following entry. N#Cc1c(N2CCC3(CC2)CC3)c2cc(C(O)C3CC3)ncc2[nH]c1=O (stereo not shown) [Compound 90]
Return: 0.0074 mL · min^−1 · mg^−1 proteins

Enquiry: Identify the reported CLint for the following entry. CC(C)(O)c1cc2c(N3CCC4(CCC4)CC3)c(C#N)c(=O)[nH]c2cn1 [Compound 82]
Return: 0.0112 mL · min^−1 · mg^−1 proteins

Enquiry: Identify the reported CLint for the following entry. N#Cc1c(N2CCC3(CCC3)CC2)c2cc(N3CC(N)C3)ncc2[nH]c1=O [Compound 53]
Return: 0.0022 mL · min^−1 · mg^−1 proteins

---

- protocol.description: Stability in human liver microsome
- particulars: human liver microsome 0.5 mg protein/mL, compound 1 μM
observation.type: CLint

given.smiles	CLint
COC1(C)CCN(c2c(C#N)c(=O)[nH]c3cnccc23)CC1	0.0024 mL · min^−1 · mg^−1 proteins
COC1(C)CCN(c2c(C#N)c(=O)[nH]c3cnc(C)cc23)CC1	0.0026 mL · min^−1 · mg^−1 proteins
COC1(C)CCN(c2c(C#N)c(=O)[nH]c3cnc(C(C)(C)O)cc23)CC1	0.0020 mL · min^−1 · mg^−1 proteins
COCCOc1cc2c(N3CCC(C)(OC)CC3)c(C#N)c(=O)[nH]c2cn1	0.0038 mL · min^−1 · mg^−1 proteins

Enquiry: Identify the reported CLint for the following entry. N#Cc1c(N2CC[C@@H](n3cccn3)C2)c2ccncc2[nH]c1=O
Return: 0.0012 mL · min^−1 · mg^−1 proteins

Enquiry: Identify the reported CLint for the following entry. N#Cc1c(Nc2ccc(Cl)cc2)c2ccncc2[nH]c1=O
Return: 0.1244 mL · min^−1 · mg^−1 proteins

Enquiry: Identify the reported CLint for the following entry. CCc1cc2c(N3CCC(C)(OC)CC3)c(C#N)c(=O)[nH]c2cn1
Return: 0.0046 mL · min^−1 · mg^−1 proteins

---

- protocol.description: Rat pharmacokinetic evaluation
- Format: in vivo, SD male rats
- particulars: male, Sprague-Dawley, plasma, po; SD rat, intragastric 5 mg/kg, median
- Experimental: Experimental Example 4: Rat Pharmacokinetic Evaluation of the Compounds of the Invention Aim: The in vivo pharmacokinetic parameters of the compounds in SD male rats (purchased from Beijing Vital River Animal Technology Co., Ltd.) were evaluated and bioavailability of the compounds was examined. Animal Administration and Sample Collection: The solution of compounds 65, 90, 107, 158 was intragastrically administered to SD rat at a dose of 5.0 mg/kg. […]
observation.type: Tmax

compound	observation.type	recorded.value
N#Cc1c(N2CCC3(CC2)CC3)c2cc(C(O)C3CC3)ncc2[nH]c1=O (stereo not drawn)	Tmax	1 h
CC(C)(O)c1cc2c(N3CCC4(CC3)CC4)c(C#N)c(=O)[nH]c2cn1	Tmax	1 h

Enquiry: Identify the reported Tmax for the following entry. CCc1cc2c(N3CCC4(CC3)CC4)c(C#N)c(=O)[nH]c2cn1
Return: 1 h

Enquiry: Identify the reported Tmax for the following entry. CCc1cc2c(N3CCC(C)(OC)CC3)c(C#N)c(=O)[nH]c2cn1
Return: 0.5 h

Enquiry: Identify the reported Tmax for the following entry. N#Cc1c(N2CCC3(CC2)CC3)c2ccncc2[nH]c1=O
Return: 1 h

Enquiry: Identify the reported Tmax for the following entry. Cc1cc2c(N3CCC4(CCC4)CC3)c(C#N)c(=O)[nH]c2cn1
Return: 0.5 h

---

# half-life listing for each entry below
- protocol.description: Rat pharmacokinetic evaluation
- Assay type: in vivo, SD male rats
- particulars: male, Sprague-Dawley, plasma; SD rat, intravenous bolus 1 mg/kg; read-out: tz1/2 iv (terminal elimination half-life) (converted)
Record the value in h, omitting the unit from your answer.

Answered examples (3):
compound	measurement.unit	half-life
N#Cc1c(N2CCC3(CC2)CC3)c2cc(C(O)C3CC3)ncc2[nH]c1=O (stereo not shown)	h	1.48
N#Cc1c(N2CCC3(CC2)CC3)c2ccncc2[nH]c1=O	h	0.51
CC(C)(O)c1cc2c(N3CCC4(CC3)CC4)c(C#N)c(=O)[nH]c2cn1	h	1.89

Enquiry: Identify the reported half-life for the following entry. Cc1cc2c(N3CCC4(CCC4)CC3)c(C#N)c(=O)[nH]c2cn1
Return: 1.47

Enquiry: Identify the reported half-life for the following entry. CCc1cc2c(N3CCC(C)(OC)CC3)c(C#N)c(=O)[nH]c2cn1
Return: 1.25

Enquiry: Identify the reported half-life for the following entry. CNC(=O)c1cc2c(N3CCC4(CC3)CC4)c(C#N)c(=O)[nH]c2cn1
Return: 0.3

Enquiry: Identify the reported half-life for the following entry. CCc1cc2c(N3CCC4(CC3)CC4)c(C#N)c(=O)[nH]c2cn1
Return: 0.89

---

- protocol.description: Canine pharmacokinetic evaluation
- Assay type: in vivo
- particulars: dog, plasma; Beagle dogs, intravenous bolus 1 mg/kg, n = 3; read-out: tz1/2 iv (terminal elimination half-life) (converted)
observation.type: half-life (h)
Record the value in h, omitting the unit from your answer.

Answered examples (2):
given.smiles	recorded.value
N#Cc1c(N2CCC3(CC2)CC3)c2ccncc2[nH]c1=O	10.4
CCc1cc2c(N3CCC(C)(OC)CC3)c(C#N)c(=O)[nH]c2cn1	1.64

Here is the next item to consider.
Enquiry: Identify the reported half-life for the following entry. Cc1cc2c(N3CCC4(CCC4)CC3)c(C#N)c(=O)[nH]c2cn1
Return: 0.49

---

# Original drug residual % at 60 min listing for each entry below
- particulars: human
Record the value in %, omitting the unit from your answer.

Answered examples (6):
molecule	Original drug residual % at 60 min [%]
N#Cc1c(N2CCC3(CC2)CC3)c2cc(C(O)C3CC3)ncc2[nH]c1=O (stereo not shown) [Compound 90]	80.5
N#Cc1c(N2CCC3(CC2)CC3)c2ccncc2[nH]c1=O [Compound 25]	87.5
CC(C)(O)c1cc2c(N3CCC4(CCC4)CC3)c(C#N)c(=O)[nH]c2cn1 [Compound 82]	72.4
N#Cc1c(N2CCC3(CCC3)CC2)c2cc(N3CC(N)C3)ncc2[nH]c1=O [Compound 53]	91.4
N#Cc1c(N2CCC3(CC2)CC3)c2ncccc2[nH]c1=O [Compound 80]	41.7
CCc1cc2c(N3CCC4(CC3)CC4)c(C#N)c(=O)[nH]c2cn1 [Compound 76]	87.3

Enquiry: Identify the reported Original drug residual % at 60 min for the following entry. N#Cc1c(N2CCC3(CCC3)CC2)c2cc(N3CC(O)C3)ncc2[nH]c1=O [Compound 51]
Return: 74.1

---

- protocol.description: Canine pharmacokinetic evaluation
- Type: in vivo
- particulars: dog, plasma, po; Beagle dogs, intragastric 1 mg/kg, n = 3; read-out: AUCinf po
observation.type: AUC(0-inf)
Give the figure together with its unit, number first.

Enquiry: Identify the reported AUC(0-inf) for the following entry. CCc1cc2c(N3CCC(C)(OC)CC3)c(C#N)c(=O)[nH]c2cn1 [Compound 107]
Return: 757 ng·h/mL
